- TARGET_ENTITY: CDC2L2 (Homo sapiens, UniProt Q9UQ88)
- Sequence (Q9UQ88 whole entry): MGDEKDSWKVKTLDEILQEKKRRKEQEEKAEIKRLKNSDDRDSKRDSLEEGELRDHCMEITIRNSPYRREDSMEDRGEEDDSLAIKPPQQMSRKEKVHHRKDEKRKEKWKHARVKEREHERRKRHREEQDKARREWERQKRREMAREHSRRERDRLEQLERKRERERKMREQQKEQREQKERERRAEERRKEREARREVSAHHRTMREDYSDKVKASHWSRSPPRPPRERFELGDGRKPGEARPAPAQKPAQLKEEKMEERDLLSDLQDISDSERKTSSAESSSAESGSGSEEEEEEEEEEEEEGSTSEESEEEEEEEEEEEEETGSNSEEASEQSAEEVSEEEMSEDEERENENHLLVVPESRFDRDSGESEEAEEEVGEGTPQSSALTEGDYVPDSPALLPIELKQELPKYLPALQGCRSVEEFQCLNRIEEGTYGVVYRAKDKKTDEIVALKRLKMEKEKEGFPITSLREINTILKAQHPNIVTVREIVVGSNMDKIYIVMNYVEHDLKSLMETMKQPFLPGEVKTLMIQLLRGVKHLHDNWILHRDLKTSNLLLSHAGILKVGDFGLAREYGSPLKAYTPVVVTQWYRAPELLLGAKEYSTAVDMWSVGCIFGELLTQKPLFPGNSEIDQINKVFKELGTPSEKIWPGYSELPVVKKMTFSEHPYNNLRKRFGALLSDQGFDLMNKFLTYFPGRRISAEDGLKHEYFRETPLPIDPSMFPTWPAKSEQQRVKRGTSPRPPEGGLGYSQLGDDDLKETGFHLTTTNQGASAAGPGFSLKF
- METHOD_NOTES: KINOMEscan competition binding
- EXPERIMENTAL_PARAMETERS: read-out: %Inh CDC2L2
PROPERTY_LABEL: inhibition at 1 µM (%)
Provide the reading as a plain figure in %.

Return reported inhibition at 1 µM; argument: O=c1cc(N2CCOCC2)nc2n(Cc3cccc(Cl)c3Cl)c(C3CC3)nn12 [UNC10225469A] 0

Return reported inhibition at 1 µM; argument: CS(=O)(=O)Cc1ccc(Nc2nccc(-c3c(-c4cccc(NC(=O)C5CCCCC5)c4)nn4ncccc34)n2)cc1 [UNC10225159A] 27

Return reported inhibition at 1 µM; argument: Cn1cc(-c2cnc(N)c3c(-c4ccc5c(c4)CCN5C(=O)Cc4ccccc4)csc23)cn1 [UNC10225012A] 1

Return reported inhibition at 1 µM; argument: Cc1ccc(NC(=O)Nc2cccc(C(F)(F)F)c2)cc1 [UNC10225187A] 0

Return reported inhibition at 1 µM; argument: COc1cccc(OC)c1C(=O)Nc1cccc(-c2nn3ccccc3c2-c2ccnc(Nc3cccc(F)c3)n2)c1 [UNC10225310A] 0

====

- TARGET_ENTITY: ASK2 (Homo sapiens, UniProt O95382)
- Sequence (O95382 whole entry): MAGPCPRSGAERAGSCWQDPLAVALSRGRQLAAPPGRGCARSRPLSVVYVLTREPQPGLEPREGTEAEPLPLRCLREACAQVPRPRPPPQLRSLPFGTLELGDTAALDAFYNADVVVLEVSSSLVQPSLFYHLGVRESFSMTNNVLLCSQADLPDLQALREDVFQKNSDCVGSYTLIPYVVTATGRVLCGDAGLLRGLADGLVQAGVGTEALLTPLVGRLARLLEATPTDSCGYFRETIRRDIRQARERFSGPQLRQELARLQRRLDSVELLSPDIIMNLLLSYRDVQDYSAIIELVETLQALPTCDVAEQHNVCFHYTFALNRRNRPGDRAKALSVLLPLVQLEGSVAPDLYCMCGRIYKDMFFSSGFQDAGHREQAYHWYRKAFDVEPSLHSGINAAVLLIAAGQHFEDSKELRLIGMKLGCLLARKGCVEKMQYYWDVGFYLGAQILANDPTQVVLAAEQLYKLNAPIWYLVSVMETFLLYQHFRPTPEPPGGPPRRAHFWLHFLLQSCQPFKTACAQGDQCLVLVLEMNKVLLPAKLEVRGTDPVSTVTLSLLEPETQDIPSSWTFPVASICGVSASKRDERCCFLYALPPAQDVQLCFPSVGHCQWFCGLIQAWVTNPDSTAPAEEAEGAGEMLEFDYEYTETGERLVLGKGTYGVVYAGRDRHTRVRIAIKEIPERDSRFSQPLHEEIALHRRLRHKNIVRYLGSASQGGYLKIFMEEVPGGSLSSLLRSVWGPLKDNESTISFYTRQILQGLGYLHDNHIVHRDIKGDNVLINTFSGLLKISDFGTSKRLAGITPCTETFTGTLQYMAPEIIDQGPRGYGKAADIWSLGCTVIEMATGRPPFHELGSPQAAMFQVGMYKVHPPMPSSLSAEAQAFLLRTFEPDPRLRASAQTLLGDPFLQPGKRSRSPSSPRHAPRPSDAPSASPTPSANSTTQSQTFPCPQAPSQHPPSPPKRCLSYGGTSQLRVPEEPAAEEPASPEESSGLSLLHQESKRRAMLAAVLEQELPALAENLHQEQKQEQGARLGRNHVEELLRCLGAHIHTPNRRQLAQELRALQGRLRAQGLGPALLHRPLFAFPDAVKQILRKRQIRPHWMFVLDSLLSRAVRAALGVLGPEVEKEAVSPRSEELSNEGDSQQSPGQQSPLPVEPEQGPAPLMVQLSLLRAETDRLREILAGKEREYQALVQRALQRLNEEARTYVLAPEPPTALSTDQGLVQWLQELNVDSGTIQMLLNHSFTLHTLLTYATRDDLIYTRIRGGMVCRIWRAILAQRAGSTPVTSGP
- METHOD_NOTES: KINOMEscan competition binding
- EXPERIMENTAL_PARAMETERS: read-out: %Inh ASK2
PROPERTY_LABEL: inhibition at 1 µM (%)
Provide the reading as a plain figure in %.

Return reported inhibition at 1 µM; argument: Cc1ccc(NC(=O)Nc2cccc(C(F)(F)F)c2)cc1 [UNC10225187A] 0

Return reported inhibition at 1 µM; argument: CS(=O)(=O)Cc1ccc(Nc2nccc(-c3c(-c4cccc(NC(=O)C5CCCCC5)c4)nn4ncccc34)n2)cc1 [UNC10225159A] 34

Return reported inhibition at 1 µM; argument: Cn1cc(-c2cnc(N)c3c(-c4ccc5c(c4)CCN5C(=O)Cc4ccccc4)csc23)cn1 [UNC10225012A] 17

Return reported inhibition at 1 µM; argument: O=c1cc(N2CCOCC2)nc2n(Cc3cccc(Cl)c3Cl)c(C3CC3)nn12 [UNC10225469A] 0

Return reported inhibition at 1 µM; argument: COc1cccc(OC)c1C(=O)Nc1cccc(-c2nn3ccccc3c2-c2ccnc(Nc3cccc(F)c3)n2)c1 [UNC10225310A] 0

====

- TARGET_ENTITY: CASK (Homo sapiens, UniProt O14936)
- Sequence (O14936 whole entry): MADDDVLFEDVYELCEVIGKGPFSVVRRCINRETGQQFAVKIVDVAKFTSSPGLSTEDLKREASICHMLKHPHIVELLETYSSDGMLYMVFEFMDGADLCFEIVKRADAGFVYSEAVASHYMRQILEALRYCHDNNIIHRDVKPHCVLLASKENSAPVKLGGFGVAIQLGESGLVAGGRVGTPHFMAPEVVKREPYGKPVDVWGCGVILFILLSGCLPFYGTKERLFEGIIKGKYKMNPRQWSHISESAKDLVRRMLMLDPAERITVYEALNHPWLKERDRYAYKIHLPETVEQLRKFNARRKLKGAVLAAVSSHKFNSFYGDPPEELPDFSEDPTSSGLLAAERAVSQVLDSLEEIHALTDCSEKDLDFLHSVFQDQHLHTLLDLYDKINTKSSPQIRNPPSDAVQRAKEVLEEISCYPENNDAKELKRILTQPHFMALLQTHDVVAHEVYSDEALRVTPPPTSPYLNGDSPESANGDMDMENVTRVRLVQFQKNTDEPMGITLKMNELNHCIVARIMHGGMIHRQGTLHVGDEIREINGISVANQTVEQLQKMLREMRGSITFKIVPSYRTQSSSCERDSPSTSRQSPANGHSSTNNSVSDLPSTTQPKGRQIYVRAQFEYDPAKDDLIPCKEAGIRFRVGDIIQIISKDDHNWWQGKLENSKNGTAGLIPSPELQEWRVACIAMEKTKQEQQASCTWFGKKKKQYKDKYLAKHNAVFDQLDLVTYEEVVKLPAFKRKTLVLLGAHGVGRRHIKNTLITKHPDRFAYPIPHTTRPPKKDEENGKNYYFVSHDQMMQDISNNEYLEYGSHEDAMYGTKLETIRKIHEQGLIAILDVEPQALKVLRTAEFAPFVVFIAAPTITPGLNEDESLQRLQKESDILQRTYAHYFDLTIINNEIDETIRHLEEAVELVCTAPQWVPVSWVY
- METHOD_NOTES: KINOMEscan competition binding
- EXPERIMENTAL_PARAMETERS: read-out: %Inh CASK
Give measured inhibition at 1 µM for each item. Keep answers brief.
Provide the reading as a plain figure in %.

Return reported inhibition at 1 µM; argument: O=c1cc(N2CCOCC2)nc2n(Cc3cccc(Cl)c3Cl)c(C3CC3)nn12 [UNC10225469A] 26

Return reported inhibition at 1 µM; argument: COc1cccc(OC)c1C(=O)Nc1cccc(-c2nn3ccccc3c2-c2ccnc(Nc3cccc(F)c3)n2)c1 [UNC10225310A] 15

Return reported inhibition at 1 µM; argument: Cc1ccc(NC(=O)Nc2cccc(C(F)(F)F)c2)cc1 [UNC10225187A] 15

Return reported inhibition at 1 µM; argument: Cn1cc(-c2cnc(N)c3c(-c4ccc5c(c4)CCN5C(=O)Cc4ccccc4)csc23)cn1 [UNC10225012A] 23

Return reported inhibition at 1 µM; argument: CS(=O)(=O)Cc1ccc(Nc2nccc(-c3c(-c4cccc(NC(=O)C5CCCCC5)c4)nn4ncccc34)n2)cc1 [UNC10225159A] 34

====

- TARGET_ENTITY: UniProt Q13557
- Sequence (Q13557 whole entry): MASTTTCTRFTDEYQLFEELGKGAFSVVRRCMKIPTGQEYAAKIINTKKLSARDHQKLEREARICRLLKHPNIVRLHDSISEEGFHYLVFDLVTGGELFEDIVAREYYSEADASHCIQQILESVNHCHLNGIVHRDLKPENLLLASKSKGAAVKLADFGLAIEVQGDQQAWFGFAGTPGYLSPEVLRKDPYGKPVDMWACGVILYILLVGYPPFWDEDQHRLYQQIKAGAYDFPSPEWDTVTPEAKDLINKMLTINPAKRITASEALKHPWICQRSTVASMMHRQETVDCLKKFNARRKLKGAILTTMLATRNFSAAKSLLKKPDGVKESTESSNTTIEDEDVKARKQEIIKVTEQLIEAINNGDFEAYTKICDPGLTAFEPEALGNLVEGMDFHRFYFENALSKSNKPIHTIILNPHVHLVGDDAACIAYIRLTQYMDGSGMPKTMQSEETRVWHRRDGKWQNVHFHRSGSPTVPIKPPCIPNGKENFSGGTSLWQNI
- METHOD_NOTES: KINOMEscan competition binding
- EXPERIMENTAL_PARAMETERS: read-out: %Inh CAMK2D
PROPERTY_LABEL: inhibition at 1 µM (%)
Provide the reading as a plain figure in %.

Return reported inhibition at 1 µM; argument: COc1cccc(OC)c1C(=O)Nc1cccc(-c2nn3ccccc3c2-c2ccnc(Nc3cccc(F)c3)n2)c1 [UNC10225310A] 0

Return reported inhibition at 1 µM; argument: Cn1cc(-c2cnc(N)c3c(-c4ccc5c(c4)CCN5C(=O)Cc4ccccc4)csc23)cn1 [UNC10225012A] 0

Return reported inhibition at 1 µM; argument: Cc1ccc(NC(=O)Nc2cccc(C(F)(F)F)c2)cc1 [UNC10225187A] 8

Return reported inhibition at 1 µM; argument: CS(=O)(=O)Cc1ccc(Nc2nccc(-c3c(-c4cccc(NC(=O)C5CCCCC5)c4)nn4ncccc34)n2)cc1 [UNC10225159A] 0

Return reported inhibition at 1 µM; argument: O=c1cc(N2CCOCC2)nc2n(Cc3cccc(Cl)c3Cl)c(C3CC3)nn12 [UNC10225469A] 18

====

- TARGET_ENTITY: ABL1-nonphosphorylated (Homo sapiens)
- METHOD_NOTES: KINOMEscan competition binding
- EXPERIMENTAL_PARAMETERS: read-out: %Inh ABL1-nonphosphorylated
Give measured inhibition at 1 µM for each item. Keep answers brief.
Provide the reading as a plain figure in %.

Request: inhibition at 1 µM, test system ABL1-nonphosphorylated (Homo sapiens), entry COc1cccc(OC)c1C(=O)Nc1cccc(-c2nn3ccccc3c2-c2ccnc(Nc3cccc(F)c3)n2)c1 [UNC10225310A] 28

Request: inhibition at 1 µM, test system ABL1-nonphosphorylated (Homo sapiens), entry CS(=O)(=O)Cc1ccc(Nc2nccc(-c3c(-c4cccc(NC(=O)C5CCCCC5)c4)nn4ncccc34)n2)cc1 [UNC10225159A] 8

Request: inhibition at 1 µM, test system ABL1-nonphosphorylated (Homo sapiens), entry Cn1cc(-c2cnc(N)c3c(-c4ccc5c(c4)CCN5C(=O)Cc4ccccc4)csc23)cn1 [UNC10225012A] 99.7

Request: inhibition at 1 µM, test system ABL1-nonphosphorylated (Homo sapiens), entry Cc1ccc(NC(=O)Nc2cccc(C(F)(F)F)c2)cc1 [UNC10225187A] 49

Request: inhibition at 1 µM, test system ABL1-nonphosphorylated (Homo sapiens), entry O=c1cc(N2CCOCC2)nc2n(Cc3cccc(Cl)c3Cl)c(C3CC3)nn12 [UNC10225469A] 28

====

- TARGET_ENTITY: EPHA7 (Homo sapiens)
- Sequence (Q15375 28-998): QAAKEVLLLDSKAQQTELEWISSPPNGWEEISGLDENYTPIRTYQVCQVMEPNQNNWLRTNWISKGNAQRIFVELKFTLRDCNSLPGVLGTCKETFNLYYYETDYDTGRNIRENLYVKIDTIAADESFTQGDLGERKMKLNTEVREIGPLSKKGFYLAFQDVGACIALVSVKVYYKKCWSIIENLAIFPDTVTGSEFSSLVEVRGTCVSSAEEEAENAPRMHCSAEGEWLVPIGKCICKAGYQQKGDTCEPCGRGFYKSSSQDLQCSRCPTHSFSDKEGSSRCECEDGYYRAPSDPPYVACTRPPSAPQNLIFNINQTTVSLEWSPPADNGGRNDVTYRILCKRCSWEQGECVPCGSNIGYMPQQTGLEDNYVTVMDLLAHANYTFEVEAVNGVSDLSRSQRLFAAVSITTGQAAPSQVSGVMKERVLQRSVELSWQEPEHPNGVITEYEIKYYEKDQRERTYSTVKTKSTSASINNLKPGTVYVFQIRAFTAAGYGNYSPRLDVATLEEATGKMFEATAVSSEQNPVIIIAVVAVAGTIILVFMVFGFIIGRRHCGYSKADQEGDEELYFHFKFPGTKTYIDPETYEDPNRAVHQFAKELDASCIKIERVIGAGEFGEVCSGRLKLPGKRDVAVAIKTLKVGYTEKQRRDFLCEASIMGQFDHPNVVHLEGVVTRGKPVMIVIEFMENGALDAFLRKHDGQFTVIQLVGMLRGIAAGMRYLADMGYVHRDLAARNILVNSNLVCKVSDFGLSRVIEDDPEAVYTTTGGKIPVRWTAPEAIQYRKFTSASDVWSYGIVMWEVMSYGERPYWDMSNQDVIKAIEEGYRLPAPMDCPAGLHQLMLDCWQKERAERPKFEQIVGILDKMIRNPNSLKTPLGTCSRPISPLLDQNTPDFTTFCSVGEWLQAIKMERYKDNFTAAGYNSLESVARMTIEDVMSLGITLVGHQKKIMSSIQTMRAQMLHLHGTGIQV
- METHOD_NOTES: KINOMEscan competition binding
- EXPERIMENTAL_PARAMETERS: read-out: %Inh EPHA7
Give measured inhibition at 1 µM for each item. Keep answers brief.
Provide the reading as a plain figure in %.

Return reported inhibition at 1 µM; argument: O=c1cc(N2CCOCC2)nc2n(Cc3cccc(Cl)c3Cl)c(C3CC3)nn12 [UNC10225469A] 0

Return reported inhibition at 1 µM; argument: COc1cccc(OC)c1C(=O)Nc1cccc(-c2nn3ccccc3c2-c2ccnc(Nc3cccc(F)c3)n2)c1 [UNC10225310A] 14

Return reported inhibition at 1 µM; argument: Cc1ccc(NC(=O)Nc2cccc(C(F)(F)F)c2)cc1 [UNC10225187A] 2

Return reported inhibition at 1 µM; argument: CS(=O)(=O)Cc1ccc(Nc2nccc(-c3c(-c4cccc(NC(=O)C5CCCCC5)c4)nn4ncccc34)n2)cc1 [UNC10225159A] 15

Return reported inhibition at 1 µM; argument: Cn1cc(-c2cnc(N)c3c(-c4ccc5c(c4)CCN5C(=O)Cc4ccccc4)csc23)cn1 [UNC10225012A] 6

====

- TARGET_ENTITY: LCK (Homo sapiens)
- Sequence (P06239 whole entry): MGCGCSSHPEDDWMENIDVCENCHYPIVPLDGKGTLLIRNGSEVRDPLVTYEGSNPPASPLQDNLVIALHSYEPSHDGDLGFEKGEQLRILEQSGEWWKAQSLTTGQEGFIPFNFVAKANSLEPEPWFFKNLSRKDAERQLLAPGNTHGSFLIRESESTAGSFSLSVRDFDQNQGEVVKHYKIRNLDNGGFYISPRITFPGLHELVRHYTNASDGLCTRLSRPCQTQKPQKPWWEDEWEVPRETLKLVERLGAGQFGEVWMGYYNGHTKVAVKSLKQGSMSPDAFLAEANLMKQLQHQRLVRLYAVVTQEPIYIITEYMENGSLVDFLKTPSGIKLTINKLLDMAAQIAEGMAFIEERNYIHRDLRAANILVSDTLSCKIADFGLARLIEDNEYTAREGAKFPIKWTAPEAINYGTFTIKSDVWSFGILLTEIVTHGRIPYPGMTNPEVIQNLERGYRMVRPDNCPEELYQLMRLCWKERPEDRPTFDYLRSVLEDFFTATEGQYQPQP
- METHOD_NOTES: KINOMEscan competition binding
- EXPERIMENTAL_PARAMETERS: read-out: %Inh LCK
PROPERTY_LABEL: inhibition at 1 µM (%)
Provide the reading as a plain figure in %.

Request: inhibition at 1 µM, test system LCK (Homo sapiens), entry Cc1ccc(NC(=O)Nc2cccc(C(F)(F)F)c2)cc1 [UNC10225187A] 6

Request: inhibition at 1 µM, test system LCK (Homo sapiens), entry Cn1cc(-c2cnc(N)c3c(-c4ccc5c(c4)CCN5C(=O)Cc4ccccc4)csc23)cn1 [UNC10225012A] 93.8

Request: inhibition at 1 µM, test system LCK (Homo sapiens), entry CS(=O)(=O)Cc1ccc(Nc2nccc(-c3c(-c4cccc(NC(=O)C5CCCCC5)c4)nn4ncccc34)n2)cc1 [UNC10225159A] 23

Request: inhibition at 1 µM, test system LCK (Homo sapiens), entry COc1cccc(OC)c1C(=O)Nc1cccc(-c2nn3ccccc3c2-c2ccnc(Nc3cccc(F)c3)n2)c1 [UNC10225310A] 24

Request: inhibition at 1 µM, test system LCK (Homo sapiens), entry O=c1cc(N2CCOCC2)nc2n(Cc3cccc(Cl)c3Cl)c(C3CC3)nn12 [UNC10225469A] 23

====

Give measured inhibition at 1 µM for each item. Keep answers brief.
- TARGET_ENTITY: UniProtKB Q8TDC3
- METHOD_NOTES: KINOMEscan competition binding
- EXPERIMENTAL_PARAMETERS: read-out: %Inh BRSK1
Provide the reading as a plain figure in %.

Return reported inhibition at 1 µM; argument: Cn1cc(-c2cnc(N)c3c(-c4ccc5c(c4)CCN5C(=O)Cc4ccccc4)csc23)cn1 [UNC10225012A] 0

Return reported inhibition at 1 µM; argument: CS(=O)(=O)Cc1ccc(Nc2nccc(-c3c(-c4cccc(NC(=O)C5CCCCC5)c4)nn4ncccc34)n2)cc1 [UNC10225159A] 0

Return reported inhibition at 1 µM; argument: O=c1cc(N2CCOCC2)nc2n(Cc3cccc(Cl)c3Cl)c(C3CC3)nn12 [UNC10225469A] 3

Return reported inhibition at 1 µM; argument: COc1cccc(OC)c1C(=O)Nc1cccc(-c2nn3ccccc3c2-c2ccnc(Nc3cccc(F)c3)n2)c1 [UNC10225310A] 0

Reference source: paper PMC5540273
